These measurements were taken from ChEMBL document CHEMBL1145823.

Biological target: Bifunctional dihydrofolate reductase-thymidylate synthase (Plasmodium falciparum K1) (UniProt P13922)
Sequence (P13922 whole entry, looked up): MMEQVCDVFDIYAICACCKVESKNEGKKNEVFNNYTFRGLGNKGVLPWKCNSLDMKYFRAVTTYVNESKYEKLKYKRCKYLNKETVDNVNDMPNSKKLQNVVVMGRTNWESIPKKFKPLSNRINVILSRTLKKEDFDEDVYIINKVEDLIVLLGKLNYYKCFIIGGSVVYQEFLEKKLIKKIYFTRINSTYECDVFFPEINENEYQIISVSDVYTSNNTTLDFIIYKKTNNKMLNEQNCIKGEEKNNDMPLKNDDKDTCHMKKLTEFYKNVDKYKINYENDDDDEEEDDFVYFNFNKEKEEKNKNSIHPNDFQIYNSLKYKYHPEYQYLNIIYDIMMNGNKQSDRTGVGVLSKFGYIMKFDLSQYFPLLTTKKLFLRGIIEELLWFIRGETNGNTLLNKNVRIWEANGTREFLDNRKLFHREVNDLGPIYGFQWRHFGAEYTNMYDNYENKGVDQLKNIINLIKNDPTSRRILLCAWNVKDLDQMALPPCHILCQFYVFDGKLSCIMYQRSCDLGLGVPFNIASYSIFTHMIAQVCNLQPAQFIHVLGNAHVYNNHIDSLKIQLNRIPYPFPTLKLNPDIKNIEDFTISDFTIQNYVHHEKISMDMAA
Experiment: Inhibition constant for PfDHFR (Plasmodium falciparum dihydrofolate reductase) with single A16V mutation; Not active
Activity calls are given as the source filed them. The rule behind the calls is not given here.

SMILES_CODE: NC(=O)Nc1ccc(Oc2ncc(C(F)(F)F)cc2Cl)cc1
NA: inactive
--
SMILES_CODE: CNC(=O)Nc1ccc(Cc2ccc(NC(=O)NC)cc2)cc1
NA: inactive
--
SMILES_CODE: NC(=O)Nc1ccc(Cc2ccc(NC(N)=O)cc2)cc1
NA: inactive
--
SMILES_CODE: NC(=O)NC(=O)Cc1ccccc1
NA: inactive

###

Target: Bifunctional dihydrofolate reductase-thymidylate synthase (Plasmodium falciparum K1, UniProt P13922, C59R/I164L/S108N)
Assay: Inhibition constant against PfDHFR (Plasmodium falciparum dihydrofolate reductase) with triple (C59R + S108N + I164L) mutations
Give Ki for every item shown.
Report the figure in µM without appending any unit label.

Fill in Ki for record `N=C(NO)c1ccc(CNC(=O)c2ccc(Cl)cc2)cc1`
93

Fill in Ki for record `COC(=O)c1sccc1-c1ccc(/C(C)=N/NC(N)=O)o1`
7.5

Fill in Ki for record `CC1(C)N=C(N)N=C(N)N1c1ccc(Cl)cc1`
1.14

Fill in Ki for record `C/N=C(\S)NNC(=O)c1cccn(Cc2cccc(Cl)c2)c1=O`
7.1

Fill in Ki for record `NNc1nc2ccccc2nc1NN`
2.7

Fill in Ki for record `N/C(=N/O)c1ccc(Oc2c(Cl)cncc2Cl)cc1`
24.4

Fill in Ki for record `N/C(=N\O)c1cccc(CS(=O)(=O)c2ccc(Cl)cc2)c1`
105

###

Target: Bifunctional dihydrofolate reductase-thymidylate synthase (Plasmodium falciparum K1)
Experiment: Inhibition constant against wild-type PfDHFR (Plasmodium falciparum dihydrofolate reductase)
Give pKi for every item shown.
pKi here: minus log base 10 of the concentration, concentration in moles per litre.

Fill in pKi for record `NNc1nc2ccccc2nc1NN`
5.44

Fill in pKi for record `C/C(=N\N=C(/N)S)c1ccc(Oc2c(Cl)cncc2Cl)cc1`
6.05

Fill in pKi for record `N/C(=N\O)c1cccc(CS(=O)(=O)c2ccc(Cl)cc2)c1`
3.99

Fill in pKi for record `N=C(NO)c1ccc(CNC(=O)c2ccc(Cl)cc2)cc1`
4.11

Fill in pKi for record `NC(=S)N/N=C/c1ccccc1`
4.63

Fill in pKi for record `N/N=C(\S)Nc1ccc(OCc2ccccc2)cc1`
4.86

Fill in pKi for record `C/N=C(\S)NNC(=O)c1cccn(Cc2cccc(Cl)c2)c1=O`
4.95

Fill in pKi for record `C=CCNC(=S)NNC(=O)c1cccn(Cc2cccc(Cl)c2)c1=O`
4.82

Fill in pKi for record `N/C(=N/O)c1ccc(Oc2c(Cl)cncc2Cl)cc1`
4.60

###

Molecular target: Bifunctional dihydrofolate reductase-thymidylate synthase (Plasmodium falciparum K1, UniProt P13922, A16V)
Sequence (P13922 whole entry A16V): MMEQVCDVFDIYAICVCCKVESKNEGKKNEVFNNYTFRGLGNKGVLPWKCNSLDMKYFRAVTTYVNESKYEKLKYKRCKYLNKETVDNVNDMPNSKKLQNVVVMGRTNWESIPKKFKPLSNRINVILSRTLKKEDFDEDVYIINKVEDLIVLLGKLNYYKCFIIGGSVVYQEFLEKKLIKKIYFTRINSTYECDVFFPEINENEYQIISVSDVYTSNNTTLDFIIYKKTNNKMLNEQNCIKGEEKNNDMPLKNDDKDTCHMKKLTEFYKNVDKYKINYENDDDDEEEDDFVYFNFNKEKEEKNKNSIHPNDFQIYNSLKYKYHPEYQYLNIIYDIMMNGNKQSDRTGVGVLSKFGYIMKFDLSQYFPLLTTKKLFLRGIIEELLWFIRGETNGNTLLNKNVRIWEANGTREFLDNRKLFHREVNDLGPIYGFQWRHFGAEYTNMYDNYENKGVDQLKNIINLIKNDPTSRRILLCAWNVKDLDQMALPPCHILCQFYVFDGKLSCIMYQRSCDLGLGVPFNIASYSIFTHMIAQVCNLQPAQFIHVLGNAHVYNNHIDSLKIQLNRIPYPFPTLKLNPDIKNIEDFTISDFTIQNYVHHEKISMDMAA
Assay: Inhibition constant against PfDHFR (Plasmodium falciparum dihydrofolate reductase) with single A16V mutation
Threshold check on Ki: strictly below 10 µM is Met; on or above 10 µM is Not met.

Would you kindly verify if Ki of `N/N=C(\S)Nc1ccc(OCc2ccccc2)cc1` is strictly less than 10 µM?
Not met

Would you kindly verify if Ki of `COC(=O)c1sccc1-c1ccc(/C(C)=N/NC(N)=O)o1` is strictly less than 10 µM?
Not met

Would you kindly verify if Ki of `C/N=C(\S)NNC(=O)c1cccn(Cc2cccc(Cl)c2)c1=O` is strictly less than 10 µM?
Met

Would you kindly verify if Ki of `NNc1nc2ccccc2nc1NN` is strictly less than 10 µM?
Met

Would you kindly verify if Ki of `NC(=S)N/N=C/c1ccccc1` is strictly less than 10 µM?
Not met

Would you kindly verify if Ki of `CC1(C)N=C(N)N=C(N)N1c1ccc(Cl)cc1` is strictly less than 10 µM?
Met

Would you kindly verify if Ki of `N=C(NO)c1ccc(CNC(=O)c2ccc(Cl)cc2)cc1` is strictly less than 10 µM?
Not met

Would you kindly verify if Ki of `N/C(=N\O)c1cccc(CS(=O)(=O)c2ccc(Cl)cc2)c1` is strictly less than 10 µM?
Not met

Would you kindly verify if Ki of `C/C(=N\N=C(/N)S)c1ccc(Oc2c(Cl)cncc2Cl)cc1` is strictly less than 10 µM?
Met

Would you kindly verify if Ki of `N=C(NO)c1ccc(Oc2cc(Cl)cc(Cl)c2)c([N+](=O)[O-])c1` is strictly less than 10 µM?
Not met

Would you kindly verify if Ki of `N/C(=N/O)c1ccc(Oc2c(Cl)cncc2Cl)cc1` is strictly less than 10 µM?
Not met

Would you kindly verify if Ki of `C=CCNC(=S)NNC(=O)c1cccn(Cc2cccc(Cl)c2)c1=O` is strictly less than 10 µM?
Not met

Would you kindly verify if Ki of `N=C(S)N/N=C/c1ccc(Oc2ncc(C(F)(F)F)cc2Cl)cc1` is strictly less than 10 µM?
Met

###

Give log10 Ki for every item shown.
Target: Bifunctional dihydrofolate reductase-thymidylate synthase (Plasmodium falciparum K1, UniProt P13922, A16V/S108T)
Sequence (P13922 whole entry, looked up, stated change not applied): as the sequence (P13922 whole entry, looked up) above
Assay: Inhibition constant against PfDHFR (Plasmodium falciparum dihydrofolate reductase) with double (A16V + S108T) mutations
Kindly note that the scale is log10 and the underlying Ki is in µM.

Fill in log10 Ki for record `C/C(=N\N=C(/N)S)c1ccc(Oc2c(Cl)cncc2Cl)cc1`
0.32

Fill in log10 Ki for record `COC(=O)c1sccc1-c1ccc(/C(C)=N/NC(N)=O)o1`
1.29

Fill in log10 Ki for record `N=C(S)N/N=C/c1ccc(Oc2ncc(C(F)(F)F)cc2Cl)cc1`
1.53

Fill in log10 Ki for record `NNc1nc2ccccc2nc1NN`
1.06

Fill in log10 Ki for record `N/N=C(\S)Nc1ccc(OCc2ccccc2)cc1`
1.75

Fill in log10 Ki for record CC1(C)N=C(N)N=C(N)N1c1ccc(Cl)cc1 [CYCLOGUANIL]
0.33

Fill in log10 Ki for record `N/C(=N\O)c1cccc(CS(=O)(=O)c2ccc(Cl)cc2)c1`
2.03

Fill in log10 Ki for record `C=CCNC(=S)NNC(=O)c1cccn(Cc2cccc(Cl)c2)c1=O`
1.23

Fill in log10 Ki for record `N/C(=N/O)c1ccc(Oc2c(Cl)cncc2Cl)cc1`
0.79

Fill in log10 Ki for record `N=C(NO)c1ccc(Oc2cc(Cl)cc(Cl)c2)c([N+](=O)[O-])c1`
0.99

Fill in log10 Ki for record `N=C(NO)c1ccc(CNC(=O)c2ccc(Cl)cc2)cc1`
1.76

Fill in log10 Ki for record NC(=S)N/N=C/c1ccccc1 [PHENYLTHIOSEMICARBAZONE]
1.70

Fill in log10 Ki for record `C/N=C(\S)NNC(=O)c1cccn(Cc2cccc(Cl)c2)c1=O`
1.13

###

Target: Bifunctional dihydrofolate reductase-thymidylate synthase (Plasmodium falciparum K1, UniProt P13922, C59R/I164L/N51I/S108N)
Experiment: Inhibition constant against PfDHFR (Plasmodium falciparum dihydrofolate reductase) with quadruple (N51I + C59R + S108N + I164L) mutations
Give pKi for every item shown.
pKi here: minus log base 10 of the concentration, concentration in moles per litre.

Fill in pKi for record `COC(=O)c1sccc1-c1ccc(/C(C)=N/NC(N)=O)o1`
4.80

Fill in pKi for record `C/N=C(\S)NNC(=O)c1cccn(Cc2cccc(Cl)c2)c1=O`
4.71

Fill in pKi for record `C=CCNC(=S)NNC(=O)c1cccn(Cc2cccc(Cl)c2)c1=O`
4.97

Fill in pKi for record `N/N=C(\S)Nc1ccc(OCc2ccccc2)cc1`
4.58

Fill in pKi for record `N=C(S)N/N=C/c1ccc(Oc2ncc(C(F)(F)F)cc2Cl)cc1`
5.03

Fill in pKi for record `N=C(NO)c1ccc(CNC(=O)c2ccc(Cl)cc2)cc1`
4.44

Fill in pKi for record `C/C(=N\N=C(/N)S)c1ccc(Oc2c(Cl)cncc2Cl)cc1`
5.82

Fill in pKi for record `N=C(NO)c1ccc(Oc2cc(Cl)cc(Cl)c2)c([N+](=O)[O-])c1`
4.49

Fill in pKi for record `N/C(=N/O)c1ccc(Oc2c(Cl)cncc2Cl)cc1`
4.56

Fill in pKi for record `CC1(C)N=C(N)N=C(N)N1c1ccc(Cl)cc1`
6.14

Fill in pKi for record `N/C(=N\O)c1cccc(CS(=O)(=O)c2ccc(Cl)cc2)c1`
4.46

Fill in pKi for record `NNc1nc2ccccc2nc1NN`
5.01

Fill in pKi for record `NC(=S)N/N=C/c1ccccc1`
4.43

###

Target: Bifunctional dihydrofolate reductase-thymidylate synthase (Plasmodium falciparum K1, UniProt P13922, S108T)
Experiment: Inhibition constant against PfDHFR (Plasmodium falciparum dihydrofolate reductase) with single S108T mutation
PROPERTY: Ki (µM)
Report the figure in µM without appending any unit label.

Fill in Ki for record `C/C(=N\N=C(/N)S)c1ccc(Oc2c(Cl)cncc2Cl)cc1`
1

Fill in Ki for record `N=C(NO)c1ccc(Oc2cc(Cl)cc(Cl)c2)c([N+](=O)[O-])c1`
4.2

Fill in Ki for record `COC(=O)c1sccc1-c1ccc(/C(C)=N/NC(N)=O)o1`
4.2

Fill in Ki for record NC(=S)N/N=C/c1ccccc1 [PHENYLTHIOSEMICARBAZONE]
9

Fill in Ki for record `C=CCNC(=S)NNC(=O)c1cccn(Cc2cccc(Cl)c2)c1=O`
1.7

Fill in Ki for record CC1(C)N=C(N)N=C(N)N1c1ccc(Cl)cc1 [CYCLOGUANIL]
0.0016

Fill in Ki for record `C/N=C(\S)NNC(=O)c1cccn(Cc2cccc(Cl)c2)c1=O`
1.8

Fill in Ki for record `NNc1nc2ccccc2nc1NN`
0.8

Fill in Ki for record `N/N=C(\S)Nc1ccc(OCc2ccccc2)cc1`
5.2

Fill in Ki for record `N/C(=N/O)c1ccc(Oc2c(Cl)cncc2Cl)cc1`
16

Fill in Ki for record `N/C(=N\O)c1cccc(CS(=O)(=O)c2ccc(Cl)cc2)c1`
30

Fill in Ki for record `N=C(NO)c1ccc(CNC(=O)c2ccc(Cl)cc2)cc1`
12.3

Fill in Ki for record `N=C(S)N/N=C/c1ccc(Oc2ncc(C(F)(F)F)cc2Cl)cc1`
2.3
